Hey, just so you know, these numbers are from ChEMBL document CHEMBL4715789.

- study-system: Voltage-gated inwardly rectifying potassium channel KCNH2 (Homo sapiens, UniProt Q12809)
- Sequence (Q12809 whole entry): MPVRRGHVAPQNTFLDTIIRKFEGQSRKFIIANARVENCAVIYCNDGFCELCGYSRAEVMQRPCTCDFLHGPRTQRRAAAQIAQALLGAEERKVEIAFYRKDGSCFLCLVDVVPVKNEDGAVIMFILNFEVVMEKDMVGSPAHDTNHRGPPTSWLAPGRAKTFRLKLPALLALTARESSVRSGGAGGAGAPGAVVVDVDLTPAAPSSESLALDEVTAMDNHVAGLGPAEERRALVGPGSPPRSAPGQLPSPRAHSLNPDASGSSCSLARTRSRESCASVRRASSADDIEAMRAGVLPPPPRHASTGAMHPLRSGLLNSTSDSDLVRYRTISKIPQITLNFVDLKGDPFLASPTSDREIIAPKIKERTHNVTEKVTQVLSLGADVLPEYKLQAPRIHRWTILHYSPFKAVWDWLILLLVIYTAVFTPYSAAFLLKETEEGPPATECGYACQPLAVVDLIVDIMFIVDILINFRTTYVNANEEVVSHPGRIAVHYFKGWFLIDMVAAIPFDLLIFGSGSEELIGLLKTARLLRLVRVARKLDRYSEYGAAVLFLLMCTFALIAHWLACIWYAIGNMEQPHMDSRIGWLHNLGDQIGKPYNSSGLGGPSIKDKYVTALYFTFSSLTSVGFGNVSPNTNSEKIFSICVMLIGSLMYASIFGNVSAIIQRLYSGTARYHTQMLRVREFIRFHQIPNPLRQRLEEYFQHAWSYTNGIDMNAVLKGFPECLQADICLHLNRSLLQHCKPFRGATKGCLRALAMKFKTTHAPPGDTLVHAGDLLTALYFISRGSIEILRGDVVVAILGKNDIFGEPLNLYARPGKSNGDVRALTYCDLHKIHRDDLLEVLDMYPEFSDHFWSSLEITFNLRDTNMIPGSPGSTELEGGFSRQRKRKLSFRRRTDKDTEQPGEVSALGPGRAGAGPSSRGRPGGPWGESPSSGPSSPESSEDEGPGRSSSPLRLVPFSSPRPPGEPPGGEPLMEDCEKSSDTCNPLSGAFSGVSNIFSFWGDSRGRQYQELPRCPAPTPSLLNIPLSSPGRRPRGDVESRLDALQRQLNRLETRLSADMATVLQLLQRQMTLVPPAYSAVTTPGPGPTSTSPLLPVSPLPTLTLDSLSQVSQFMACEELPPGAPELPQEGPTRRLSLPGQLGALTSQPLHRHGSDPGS
- assay-procedure: Inhibition of human ERG by IonWorks patch clamp electrophysiology method
pIC50: −log10 of the molar value.
Provide the reported pIC50 of each item.

Q: // returns reported pIC50 for input Nc1ncc(-c2ccc(C(=O)O)cc2)nc1-c1ccc(C(F)(F)F)cc1
A: < 4.48

Q: What about this molecule? Nc1ncc(-c2ccc(C(=O)N3CCC(O)CC3)cc2)nc1-c1ccc(C(F)(F)F)nc1
A: < 4.48

Q: What about this molecule? Nc1ncc(-c2ccc(C(=O)N3CC[C@@H](O)C3)cc2)nc1-c1ccc(C(F)(F)F)cc1
A: < 4.48

Q: What about this molecule? Nc1ncc(-c2ccc(C(=O)N3CCC(O)CC3)cc2)nc1-c1ccc(C(F)(F)F)cc1
A: < 4.48

----------
Provide the reported pIC50 of each item.
- Test system: Plasmodium falciparum
- assay-procedure: microbe, parasite or virus in culture
- details: NF54, Erythrocyte
- Description: Antiplasmodial activity against multidrug-sensitive Plasmodium falciparum NF54 infected in human erythrocytes assessed as reduction in [3H]hypoxanthine incorporation preincubated for 48 hrs followed by [3H]hypoxanthine addition and measured after 24 hrs by liquid scintillation counting method
Friendly reminder that pIC50 comes from taking -log10 of the concentration in mol/L.

Q: // returns reported pIC50 for input Nc1ncc(-c2ccc(C(=O)N3CC[C@H](O)C3)cc2)nc1-c1ccc(C(F)(F)F)cc1
A: 8.22

Q: What about this compound? CN1CCN(C(=O)c2ccc(-c3cnc(N)c(-c4ccc(C(F)(F)F)nc4)n3)cc2)CC1
A: 8.00

Q: What about this compound? Nc1ncc(-c2ccc(C(=O)N3CC(O)C3)cc2)nc1-c1ccc(C(F)(F)F)cc1
A: 8.04

Q: What about this compound? NC(=O)c1ccc(-c2cnc(N)c(-c3ccc(C(F)(F)F)cc3)n2)cc1
A: 7.85

Q: What about this compound? CN1CCCN(C(=O)c2ccc(-c3cnc(N)c(-c4ccc(C(F)(F)F)nc4)n3)cc2)CC1
A: 7.82

Q: What about this compound? CN1CCCN(C(=O)c2ccc(-c3cnc(N)c(-c4ccc(C(F)(F)F)cc4)n3)cc2)CC1
A: 8.17

Q: What about this compound? CC(C)(C)N1CCN(C(=O)c2ccc(-c3cnc(N)c(-c4ccc(C(F)(F)F)nc4)n3)cc2)CC1
A: 8.05

Q: What about this compound? Nc1ncc(-c2ccc(C(=O)N3CCC(O)CC3)cc2)nc1-c1ccc(C(F)(F)F)nc1
A: 8.00

----------
- assay-procedure: Aqueous solubility of compound in pH 2 0.01M HCl incubated for 2 hrs under shaking condition by shake-flask method based HPLC-DAD analysis
- Type: physicochemical
Provide the reported solubility thermodynamic at 2 h of each item.
Reply numerically in µM, unit not repeated.

Q: // returns reported solubility thermodynamic at 2 h for input CC(C)(C)N1CCN(C(=O)c2ccc(-c3cnc(N)c(-c4ccc(C(F)(F)F)cc4)n3)cc2)CC1
A: 200

Q: What about this compound? Nc1ncc(-c2ccc(C(=O)N3CC[C@H](O)C3)cc2)nc1-c1ccc(C(F)(F)F)cc1
A: 93

Q: What about this compound? N#Cc1ccc(-c2cnc(N)c(-c3ccc(N)nc3)n2)cc1
A: 208

----------
- System: Plasmodium falciparum
- assay-procedure: Antimalarial activity against Plasmodium falciparum 3D70087/N9 infected in NOD-SCID IL2Rgamma null mouse assessed as blood AUC level require to show 90% reduction in parasitemia administered orally on day 3 to 6 post-infection and measured day 7 post infection
- Type: functional, organism-based
- details: time 5.0 day
quantity-name: AUC

Q: // returns reported AUC for input Nc1ncc(-c2ccc(C(=O)O)cc2)nc1-c1ccc(C(F)(F)F)nc1
A: < 440 ng·h/mL

Q: What about this compound? Nc1ncc(-c2ccc(C(=O)N3CCNCC3)cc2)nc1-c1ccc(C(F)(F)F)cc1
A: < 65 ng·h/mL

Q: What about this compound? NC(=O)c1ccc(-c2cnc(N)c(-c3ccc(C(F)(F)F)cc3)n2)cc1
A: < 75 ng·h/mL
